Origin of the recorded values: patent US11365181B2

Experiment: Pharmacokinetic study of compound 03058 in male ICR mice
Type: in vivo
Conditions: mouse, Intravenous 0.05 mg/kg, plasma
outcome-measure: half-life (min)
Please give a number only; it is taken to be in min.

Complete the entry with half-life for Cc1cc(N2CCOc3cc(F)ccc3C2)cc(C)c1NC(=O)CC(C)(C)C
43.8

---

Assay: Plasma and brain concentration / cerebral blood ratio (BBB penetration) in male SD rats after single oral administration
Format: in vivo
Details: rat, brain/plasma, 5 mg/kg, at each time point (1, 4, 8 h), oral administration
Documented Kp across a set of compounds

Cc1cc(N2CCCc3sc(Cl)cc3C2)cc(C)c1NC(=O)CC(C)(C)C = 1 to 2.4

Consider the compound Cc1cc(N2CCCc3cc(Cl)sc3C2)cc(C)c1NC(=O)CC(C)(C)C and give its recorded Kp.
1 to 2.4

---

Molecular target: KCNQ2 potassium channel (CHO-KCNQ2 cells) (Homo sapiens (Human))
Assay: Activity test of potassium ion channel opener (FDSS/μCELL detection, FluxOR potassium ion channel assay)
Settings: CHO-KCNQ2 cells, FluxOR fluorescence, FDSS/μCELL
Property: EC50; scope: individual molecules
// note: answer is a bare numeric in nM

Please review the following examples before continuing.
Cc1cc(N2CCCCc3ncccc32)cc(C)c1NC(=O)CC(C)(C)C = 6480
Cc1cc(N2CCCCc3sccc32)cc(C)c1NC(=O)CC(C)(C)C = 71

Could you now consider this next molecule?
Output measured EC50 for this item: Cc1cc(N2CCOc3cc(F)ccc3C2)cc(C)c1NC(=O)CC(C)(C)C
8

---

Target: KCNQ2 potassium channel (CHO-KCNQ2 cells) (Homo sapiens (Human), UniProt O43526)
Sequence (O43526 whole entry): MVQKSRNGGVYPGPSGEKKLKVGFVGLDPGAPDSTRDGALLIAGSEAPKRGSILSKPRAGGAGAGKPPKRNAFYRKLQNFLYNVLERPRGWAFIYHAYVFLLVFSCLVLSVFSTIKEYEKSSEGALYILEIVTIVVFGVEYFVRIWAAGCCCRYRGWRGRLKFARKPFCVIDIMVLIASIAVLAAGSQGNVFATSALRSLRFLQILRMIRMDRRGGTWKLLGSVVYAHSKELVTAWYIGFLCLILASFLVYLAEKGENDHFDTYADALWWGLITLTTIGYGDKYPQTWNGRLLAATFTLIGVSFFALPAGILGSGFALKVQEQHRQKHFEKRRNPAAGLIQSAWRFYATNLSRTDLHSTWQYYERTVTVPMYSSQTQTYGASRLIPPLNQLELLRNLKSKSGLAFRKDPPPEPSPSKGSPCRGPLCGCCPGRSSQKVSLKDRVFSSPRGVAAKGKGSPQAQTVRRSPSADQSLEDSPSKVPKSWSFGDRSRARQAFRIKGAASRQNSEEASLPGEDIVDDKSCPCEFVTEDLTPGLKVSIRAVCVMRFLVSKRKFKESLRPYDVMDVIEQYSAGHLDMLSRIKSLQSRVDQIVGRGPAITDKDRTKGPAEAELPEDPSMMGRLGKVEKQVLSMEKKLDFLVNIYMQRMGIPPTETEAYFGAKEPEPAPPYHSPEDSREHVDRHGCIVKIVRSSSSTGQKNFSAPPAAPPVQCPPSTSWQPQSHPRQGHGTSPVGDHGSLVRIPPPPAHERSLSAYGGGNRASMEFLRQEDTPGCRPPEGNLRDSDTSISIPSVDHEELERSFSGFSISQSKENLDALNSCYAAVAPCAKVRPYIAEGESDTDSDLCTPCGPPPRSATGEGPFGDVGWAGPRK
Assay: Activity test of potassium ion channel opener (FDSS/μCELL detection, FluxOR potassium ion channel assay)
Details: CHO-KCNQ2 cells, FluxOR fluorescence, FDSS/μCELL
outcome-measure: EC50 (nM)
Give just the numeric value; nM need not be written.

Below, each entry is followed by its recorded EC50 result.
Cc1cc(N2CCCOc3cc(F)ccc32)cc(C)c1NC(=O)CC(C)(C)C = 860
Cc1cc(N2CCCCc3sc(Cl)cc32)cc(C)c1NC(=O)CC(C)(C)C = 260
Cc1cc(N2CCCc3cscc3C2)cc(C)c1NC(=O)CC(C)(C)C = 147

Now examine the next entry.
Consider the compound Cc1cc(N2CCc3sc(Cl)cc3C2)cc(C)c1NC(=O)CC(C)(C)C and give its recorded EC50.
65
